- target_entity: T1, MUC1 60-mer peptide NH2-(…)3-COOH (biotinylated in the ELISAs and selections)
- T1 construct: also called biotinylated MUC1 60-mer
- assay_protocol: phage ELISA on MUC1 antigen (biotinylated MUC1 60-mer)
observable: ELISA OD450 (OD450)
Quick reminder: number only, in OD450, skip the unit.

Here are 4 binders together with their reported answers.
clone 21 (unselected SPIKE library) (Fab, V domains shown) VH: QVQLVQSGGGLVQPGGSLRLSCAASGFTFRSNAMGWVRQAPGKGLEWVSGISGSGGSTYYADSVKGRFTISRDNSKNTLYLQMNSLRAEDTAVYYCANQTGGGVWDPIDYWGQGTLVTVSS VL: EIVLTQSPLSLPVTPGEPASISCRSSQSLLHSNGYTYLDWYLQKPGQSPQLLIYSGSHRASGVPDRFSGSVSGTDFTLRISRVEAEDVGVYYCMQGLQSPFTFGPGTKVDIKR : 0.108
clone 20 (unselected SPIKE library) (Fab, V domains shown) VH: QVQLVQSGGGLVQPGGSLRLSCAASGFTFRSNAMGWVRQAPGKGLEWVSGISGSGGSTYYADSVKGRFTISRDNSKNTLYLQMNSLRAEDTAVYYCASHTGGRGWDPIDYWGQGTLVTVSS VL: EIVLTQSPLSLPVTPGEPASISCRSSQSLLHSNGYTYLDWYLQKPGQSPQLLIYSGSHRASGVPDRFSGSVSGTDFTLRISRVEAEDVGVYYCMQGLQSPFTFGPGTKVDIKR : 0.109
clone 25 (unselected SPIKE library) (Fab, V domains shown) VH: QVQLVQSGGGLVQPGGSLRLSCAASGFTFRSNAMGWVRQAPGKGLEWVSGISGSGGSTYYADSVKGRFTISRDNSKNTLYLQMNSLRAEDTAVYYCAKHTGVGVWHPIYYWGQGTLVTVSS VL: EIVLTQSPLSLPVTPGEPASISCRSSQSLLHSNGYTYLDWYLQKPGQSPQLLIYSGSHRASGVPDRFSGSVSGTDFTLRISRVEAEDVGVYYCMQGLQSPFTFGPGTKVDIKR : 0.315
clone 22 (unselected SPIKE library) (Fab, V domains shown) VH: QVQLVQSGGGLVQPGGSLRLSCAASGFTFRSNAMGWVRQAPGKGLEWVSGISGSGGSTYYADSVKGRFTISRDNSKNTLYLQMNSLRAEDTAVYYCARHTGGGVWDPIYYWGQGTLVTVSS VL: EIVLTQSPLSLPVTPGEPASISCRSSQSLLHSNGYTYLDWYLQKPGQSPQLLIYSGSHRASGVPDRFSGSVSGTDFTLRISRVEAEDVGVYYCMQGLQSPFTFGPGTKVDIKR : 0.663

API: the following record is the query input.
Which ELISA OD450 value belongs to clone 23 (unselected SPIKE library) (Fab, V domains shown) VH: QVQLVQSGGGLVQPGGSLRLSCAASGFTFRSNAMGWVRQAPGKGLEWVSGISGSGGSTYYADSVKGRFTISRDNSKNTLYLQMNSLRAEDTAVYYCAKPTGGGAWDPIDYWGQGTLVTVSS VL: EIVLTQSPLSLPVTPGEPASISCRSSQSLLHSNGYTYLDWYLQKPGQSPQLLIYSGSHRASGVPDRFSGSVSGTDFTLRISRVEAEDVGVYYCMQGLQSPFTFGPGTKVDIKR ?
0.373
